Attribution: ChEMBL document CHEMBL4265907

Target: Epidermal growth factor receptor (Homo sapiens, UniProt P00533, DEL747/DEL747-750)
Sequence (P00533 with tags, fused parts or gaps DEL747/DEL747-750 limits assumed): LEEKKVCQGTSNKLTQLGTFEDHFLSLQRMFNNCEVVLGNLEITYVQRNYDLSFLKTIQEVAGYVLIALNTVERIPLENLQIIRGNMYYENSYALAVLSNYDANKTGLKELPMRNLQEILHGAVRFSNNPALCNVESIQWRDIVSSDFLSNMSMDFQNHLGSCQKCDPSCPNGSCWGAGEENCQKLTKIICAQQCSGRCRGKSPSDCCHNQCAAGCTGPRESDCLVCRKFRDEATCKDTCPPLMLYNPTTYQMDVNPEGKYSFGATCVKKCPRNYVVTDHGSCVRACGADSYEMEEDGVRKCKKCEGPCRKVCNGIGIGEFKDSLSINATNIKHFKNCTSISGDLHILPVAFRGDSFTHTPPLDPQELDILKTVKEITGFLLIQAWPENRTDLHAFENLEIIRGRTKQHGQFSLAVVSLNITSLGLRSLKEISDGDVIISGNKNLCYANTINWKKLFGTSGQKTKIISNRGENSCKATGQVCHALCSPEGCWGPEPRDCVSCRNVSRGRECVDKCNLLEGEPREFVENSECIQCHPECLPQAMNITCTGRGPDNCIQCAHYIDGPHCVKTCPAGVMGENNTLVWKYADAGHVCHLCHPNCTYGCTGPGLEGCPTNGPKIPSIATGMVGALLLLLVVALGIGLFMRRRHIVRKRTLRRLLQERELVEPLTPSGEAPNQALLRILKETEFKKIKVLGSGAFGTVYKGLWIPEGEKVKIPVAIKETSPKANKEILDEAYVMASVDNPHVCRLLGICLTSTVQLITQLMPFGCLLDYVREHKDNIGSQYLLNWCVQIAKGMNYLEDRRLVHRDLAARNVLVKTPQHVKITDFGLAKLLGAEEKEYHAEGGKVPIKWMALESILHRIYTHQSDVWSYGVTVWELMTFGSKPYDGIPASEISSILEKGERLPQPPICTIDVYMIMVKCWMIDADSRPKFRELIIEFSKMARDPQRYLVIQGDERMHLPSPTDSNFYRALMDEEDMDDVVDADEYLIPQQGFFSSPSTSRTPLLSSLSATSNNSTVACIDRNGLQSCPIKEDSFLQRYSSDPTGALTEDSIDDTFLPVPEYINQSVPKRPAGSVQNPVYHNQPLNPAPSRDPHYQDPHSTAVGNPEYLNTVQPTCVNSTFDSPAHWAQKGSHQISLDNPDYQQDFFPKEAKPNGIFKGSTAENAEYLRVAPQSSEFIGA
Assay: Inhibition of N-terminal GST-tagged human EGFR del 747-750 mutant cytoplasmic domain expressed in baculovirus expression system using FAM-labeled peptide as substrate after 10 mins by mobility shift assay
MEASUREMENT_NAME: log10(IC50) (log10 of the value in nM)
Friendly reminder: values = log10 of IC50, unit nM.

// solved cases for log10(IC50) follow
{"columns": ["CHEMICAL_STRUCTURE", "TESTED_ON", "MEASUREMENT_NAME", "DATA_VALUE"],
 "data": [
  ["COc1cccc(Nc2cc(Nc3ccc(S(N)(=O)=O)cc3)ncn2)c1", "Epidermal growth factor receptor (Homo sapiens, UniProt P00533, DEL747/DEL747-750)", "log10(IC50)", 3.09],
  ["COc1ccc(OC)c(Nc2cc(Nc3ccc(F)cc3)ncn2)c1", "Epidermal growth factor receptor (Homo sapiens, UniProt P00533, DEL747/DEL747-750)", "log10(IC50)", 2.32],
  ["O=C(O)CCCC(=O)Nc1cc(Nc2ccc(Cl)cc2)ncn1", "Epidermal growth factor receptor (Homo sapiens, UniProt P00533, DEL747/DEL747-750)", "log10(IC50)", 2.97],
  ["O=C(O)CCCC(=O)Nc1cc(N2CCOCC2)ncn1", "Epidermal growth factor receptor (Homo sapiens, UniProt P00533, DEL747/DEL747-750)", "log10(IC50)", 1.04]
]}

// moving on: another record for log10(IC50)
Request: What value of measured log10(IC50) is listed for CCOC(=O)c1ccc(Nc2cc(NC(=O)CCCC(=O)O)ncn2)cc1 ?
Result: 1.32

* * *

Target: Vascular endothelial growth factor receptor 2 (Homo sapiens)
Assay: Inhibition of N-terminal GST-tagged human KDR cytoplasmic domain (790 to 1356 residues) expressed in baculovirus expression system at […] using FAM-labeled peptide as substrate after 10 mins by mobility shift assay relative to control
MEASUREMENT_NAME: inhibition (%)
Express your answer in %, writing the number without its unit.

Request: What value of measured inhibition is listed for CCOC(=O)CCCC(=O)Nc1cc(Nc2cccc(Cl)c2)ncn1 ?
Result: 16

Request: Please answer likewise for CCCC(C)OC(=O)CCC(=O)Nc1cc(Nc2cccc(Br)c2)ncn1 (stereo not drawn)
Result: 14.8

Request: Please answer likewise for COc1ccc(OC)c(Nc2cc(Nc3ccc(Cl)cc3)ncn2)c1
Result: 6.5

* * *

inhibition values for the compounds below.
Target: Tyrosine-protein kinase JAK2 (Homo sapiens) (UniProt O60674)
Sequence (O60674 whole entry, the tested form may be a part): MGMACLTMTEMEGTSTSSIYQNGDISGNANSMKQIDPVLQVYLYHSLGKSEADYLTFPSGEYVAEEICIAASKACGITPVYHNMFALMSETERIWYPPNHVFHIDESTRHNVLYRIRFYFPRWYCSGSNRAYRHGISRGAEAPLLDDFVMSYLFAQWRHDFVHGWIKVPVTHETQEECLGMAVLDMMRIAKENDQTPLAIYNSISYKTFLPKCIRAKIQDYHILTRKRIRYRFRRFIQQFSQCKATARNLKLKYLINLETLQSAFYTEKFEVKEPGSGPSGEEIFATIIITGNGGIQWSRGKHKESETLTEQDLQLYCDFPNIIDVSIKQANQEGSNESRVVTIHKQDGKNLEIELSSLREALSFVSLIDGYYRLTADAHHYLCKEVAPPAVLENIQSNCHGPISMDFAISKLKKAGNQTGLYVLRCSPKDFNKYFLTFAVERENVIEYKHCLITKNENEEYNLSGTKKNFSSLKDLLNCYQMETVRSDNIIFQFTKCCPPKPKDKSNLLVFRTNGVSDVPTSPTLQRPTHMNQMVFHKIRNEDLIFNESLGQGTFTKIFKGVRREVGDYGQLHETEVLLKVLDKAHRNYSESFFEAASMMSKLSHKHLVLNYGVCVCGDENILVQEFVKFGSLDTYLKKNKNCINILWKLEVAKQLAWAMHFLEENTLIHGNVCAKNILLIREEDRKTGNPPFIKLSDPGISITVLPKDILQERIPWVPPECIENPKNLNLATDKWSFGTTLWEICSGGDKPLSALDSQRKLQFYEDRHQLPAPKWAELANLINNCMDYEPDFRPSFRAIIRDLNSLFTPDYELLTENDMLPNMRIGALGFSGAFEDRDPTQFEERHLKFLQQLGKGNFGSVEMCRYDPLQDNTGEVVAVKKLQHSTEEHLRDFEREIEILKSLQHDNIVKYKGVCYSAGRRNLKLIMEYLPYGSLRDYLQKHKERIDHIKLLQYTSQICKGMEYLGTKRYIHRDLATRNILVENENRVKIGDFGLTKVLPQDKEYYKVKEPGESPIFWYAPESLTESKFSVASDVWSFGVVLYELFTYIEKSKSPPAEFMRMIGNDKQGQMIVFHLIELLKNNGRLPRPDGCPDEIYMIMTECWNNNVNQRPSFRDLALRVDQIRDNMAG
Experiment: Inhibition of human N-terminal His-tagged JAK2 catalytic domain (826 to 1132 residues) expressed in baculovirus expression system at 1 uM using FAM-labeled peptide as substrate after 10 mins by mobility shift assay relative to control
Express your answer in %, writing the number without its unit.

// solved cases for inhibition follow
{"columns": ["CHEMICAL_STRUCTURE", "MEASUREMENT_NAME", "U", "DATA_VALUE"],
 "data": [
  ["O=C(O)CCCC(=O)Nc1cc(Nc2cccc(Cl)c2)ncn1", "inhibition", "%", 12.7],
  ["O=C(O)CCCC(=O)Nc1cc(N2CCOCC2)ncn1", "inhibition", "%", 0.2]
]}

Request: What value of measured inhibition is listed for CCOC(=O)c1ccc(Nc2cc(NC(=O)CCCC(=O)O)ncn2)cc1 ?
Result: 4.2

Request: Please answer likewise for COc1cccc(Nc2cc(Nc3cc(OC)ccc3OC)ncn2)c1
Result: 0.7

Request: Please answer likewise for COc1cccc(Nc2cc(NC(=O)CCCC(=O)O)ncn2)c1
Result: 17.7

Request: Please answer likewise for COc1ccc(Nc2cc(NC(=O)c3ccccc3)ncn2)cc1
Result: -4.2
